- Assay Name: Cytotoxicity against rat PC12 cells assessed as inhibition of cell viability at 10 uM after 48 hrs by MTT assay relative to control
- Assay type: cell-based, PC-12
- Condition Info: read-out: INH
Readout Type: cytotoxicity at 48 h, 10 µM (%)
Report as a plain number; the unit % is understood.

In [3]: df
Out[3]:
                          smiles_structure                 readout_type  result
0  c1ccc(-c2cc(NCCCN3CCOCC3)c3ccccc3n2)cc1  cytotoxicity at 48 h, 10 µM    12.6

# context switch: different molecule, same cytotoxicity at 48 h, 10 µM
Form field cytotoxicity at 48 h, 10 µM, entry c1ccc(-c2cc(N3CCCC3)c3ccccc3n2)cc1 : 24.2
